B1: HDV Ribozyme (parent)
chain: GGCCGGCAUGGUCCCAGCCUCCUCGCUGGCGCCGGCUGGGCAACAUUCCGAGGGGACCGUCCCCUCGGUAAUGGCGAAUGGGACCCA

variants of: B1; test: self-cleavage, relative activity (ratio to wild type); higher = more cleavage; co-transcriptional
measure: self-cleavage
The answer should be written as a number, with no unit following it.

Example entries and their recorded answers appear below.
• GGCCGGCAUGGUCCCAGCCUCCUCGCUAGCGCCGGCUGGGCAACAUUCCGAGGGGACCGUCCCCUCGGUAAUCGCGAAUGGGACCCA [G28A G73C] = 0.0256
• GGCCGGCAUGGUCCCAGCCUCCACGCUUGCGCCGGCUGGGCAACAUUCCGAGGGGACCGUCCCCUCGGUAAUGGCGAAUGGGACCCA [U23A G28U] = 0.116
• GGCCAGCAUGGUCCCAGCCUCCUCGCUGGCGCCGGCUGGGCAACAUCCCGAGGGGACCGUCCCCUCGGUAAUGGCGAAUGGGACCCA [G5A U47C] = 0.0615
• GGCCGGCAUGGUCCCAGCCUCCUCGCUGGCGCCGGCUGGGCAACAUUCCGAUGGGACCCUCCCCUCGGUAAUGGCGAAUGGGACCCA [G52U G59C] = 0.765
• GGCAGGCAUGGUCCCAGCCUCCUCGCUGGCGGCGGCUGGGCAACAUUCCGAGGGGACCGUCCCCUCGGUAAUGGCGAAUGGGACCCA [C4A C32G] = 0

Form field: reported self-cleavage of GGACGGCAUGGUCCCAGCCUCCCCGCUGGCGCCGGCUGGGCAACAUUCCGAGGGGACCGUCCCCUCGGUAAUGGCGAAUGGGACCCA [C3A U23C]
0.46

What about this variant? GGCCGGCAUGGUCCCAGCCUCCUCGCUGGCGCCGGCUGGGCAACAUUCCGAGGGGACCGUACCCUCGGUAAUGGCGAAUAGGACCCA [C61A G80A]
0.41

What about this variant? GGCCGGCAUGGUCCCAGCCUCCUCGCUGGCGCCGGCUGGGCAACAUUCCGAGGGGACCGUCGCCUCGGUAAGGGCGAAUGGGACCCA [C62G U72G]
0.277

What about this variant? GGCCGGCAUGGUCCCAGCCUCCUCGCUGGCGCCGGCUGGGCAACAUUCAGAGGGGACCGUCCCCUCAGUAAUGGCGAAUGGGACCCA [C49A G67A]
1.27

What about this variant? GGCUGGCCUGGUCCCAGCCUCCUCGCUGGCGCCGGCUGGGCAACAUUCCGAGGGGACCGUCCCCUCGGUAAUGGCGAAUGGGACCCA [C4U A8C]
0.443

What about this variant? GCCCGGCAUGGUCCCAGCGUCCUCGCUGGCGCCGGCUGGGCAACAUUCCGAGGGGACCGUCCCCUCGGUAAUGGCGAAUGGGACCCA [G2C C19G]
0.102

What about this variant? GGCCGGCAUGGUCCCAGCCUCCUCGCUGGCGCCGGCUGGGCGACAUUCCGAGGGGACCGUCCCCUCGGUAAUGGCGAAUGGGACACA [A42G C85A]
0.745

What about this variant? GGCCGGCAUGGUCCCAGCCUCCUCGCUGGCGCCGGCUGGGCAACAUUCCGACGGGACCGCCCCCUCGGUAAUGGCGAAUGGGACCCA [G52C U60C]
0.966

What about this variant? GGCCGGCAUGGUCCCAGCCUCCUCGCUGGCGCCGGCUGGGCAACAUUCCGAGGGCACCGUCCCCUCGGUAAUGGCGACUGGGACCCA [G55C A78C]
0.111

What about this variant? GGCCGGCAUGGUCCCAGCCUCCUCCCUGGCGCCGGCUGGGCAACAUUCCGAGGGGACCGUCCCCUCGGUAAUGGCAAAUGGGACCCA [G25C G76A]
0.0875

What about this variant? GGCCGGCAUGGACCCAGCCUCCUCGCUGGCGCCGGCUGGGCAACAUUCCGAGGGGACCGACCCCUCGGUAAUGGCGAAUGGGACCCA [U12A U60A]
0.453

What about this variant? GGACGGCAUGGUCACAGCCUCCUCGCUGGCGCCGGCUGGGCAACAUUCCGAGGGGACCGUCCCCUCGGUAAUGGCGAAUGGGACCCA [C3A C14A]
0.313

What about this variant? GGCCGGCAUGGUCCCAGGCUCCUCGCUGGCGCCGGCUGGGCAACAGUCCGAGGGGACCGUCCCCUCGGUAAUGGCGAAUGGGACCCA [C18G U46G]
0.0692

What about this variant? GGCCGGCAUGGUCCCAGCCUCCUCGCUGGCGCCGGCUGGGCAACAUUCCGAGGGGAACGUCCCCCCGGUAAUGGCGAAUGGGACCCA [C57A U65C]
0.762

What about this variant? GGCCGGCAUGGUCUCAGCCUCCUCGCUGGCGCCGGCUGGGCAACAUUCCGAGGGGACCGUCCCCUCGGUAAUGGCGAAUGGUACCCA [C14U G82U]
0.494

What about this variant? GGCCGGCAUGGUCCCAGCCUCCUCGCUGGCGCCGGCUGGGAAACAUUCCGCGGGGACCGUCCCCUCGGUAAUGGCGAAUGGGACCCA [C41A A51C]
0.875

What about this variant? GGCUGGCAUGGUCCCAGCCUCCUCGCCGGCGCCGGCUGGGCAACAUUCCGAGGGGACCGUCCCCUCGGUAAUGGCGAAUGGGACCCA [C4U U27C]
0.166
